Measured shrunken log2 fold change, listed per entry for reference.
Test system: Escherichia coli TOP10
Experiment: shrunken log2 fold change of peptide-encoding DNA abundance (4.5 h post-induction vs induction); higher = less antimicrobial activity (less host growth inhibition)
Conditions: time post-induction: 4.5 h; library: site-saturation at positions 5, 18, 19, 20
I only need the number, thanks.

`RRIRARPPRLPRPRPRPASPPRP` has a reported shrunken log2 fold change of 0.499

Consider `RRIRPRPPRLPRPRPRPDCEPRP` . Its measured shrunken log2 fold change is 0.0556

Given item `RRIRIRPPRLPRPRPRPHKMPRP` , the value recorded as its shrunken log2 fold change is -0.237

The recorded shrunken log2 fold change for entry `RRIRMRPPRLPRPRPRPIVLPRP` equals -0.0572

Query `RRIRGRPPRLPRPRPRPRTCPRP` yields shrunken log2 fold change of 0.592

shrunken log2 fold change in this record for `RRIRVRPPRLPRPRPRPTDDPRP` : -0.183

###

The following sequences are listed with their measured shrunken log2 fold change values.
System: Escherichia coli TOP10
Test: shrunken log2 fold change of peptide-encoding DNA abundance (4.5 h post-induction vs induction); higher = less antimicrobial activity (less host growth inhibition)
Conditions: time post-induction: 4.5 h; library: site-saturation at positions 5, 18, 19, 20
A bare number is all that is needed in reply.

Notebook: `RRIRLRPPRLPRPRPRPYHPPRP` , shrunken log2 fold change read as -0.00992

Consider `RRIRKRPPRLPRPRPRPAYDPRP` . Its measured shrunken log2 fold change is -0.116

Recorded result, `RRIRCRPPRLPRPRPRPRGMPRP` , shrunken log2 fold change: 1.56

So for `RRIRRRPPRLPRPRPRPEPGPRP` , the logged shrunken log2 fold change turned out to be 0.587

Briefly, shrunken log2 fold change measured for `RRIRWRPPRLPRPRPRPELNPRP` : 0.259

shrunken log2 fold change reported for this sequence `RRIRRRPPRLPRPRPRPMSTPRP` : 0.231

###

Test system: Escherichia coli TOP10
Assay: shrunken log2 fold change of peptide-encoding DNA abundance (4.5 h post-induction vs induction); higher = less antimicrobial activity (less host growth inhibition)
Settings: time post-induction: 4.5 h; library: site-saturation at positions 5, 18, 19, 20
Values of shrunken log2 fold change greater than or equal to -0.02 map to criterion met; values below map to criterion not met.

Worked set:
>>> df
                  seq_text        label_value
0  RRIRYRPPRLPRPRPRPMCTPRP      criterion met
1  RRIRLRPPRLPRPRPRPDEQPRP      criterion met
2  RRIRERPPRLPRPRPRPHEGPRP      criterion met
3  RRIRLRPPRLPRPRPRPNKQPRP  criterion not met
4  RRIRKRPPRLPRPRPRPNSMPRP  criterion not met

Now for a further sequence.
Prompt line: Does the reported shrunken log2 fold change for `RRIRVRPPRLPRPRPRPYWVPRP` fall at or above the -0.02 mark?
Response line: criterion not met

###

System: Escherichia coli TOP10
Assay: shrunken log2 fold change of peptide-encoding DNA abundance (4.5 h post-induction vs induction); higher = less antimicrobial activity (less host growth inhibition)
Conditions: time post-induction: 4.5 h; library: site-saturation at positions 5, 18, 19, 20
Some sequences, each annotated with its measured shrunken log2 fold change.
Form field (numeric): enter value without unit.

The measured shrunken log2 fold change associated with `RRIRHRPPRLPRPRPRPDYPPRP` reads -0.111

The sequence `RRIRQRPPRLPRPRPRPGGKPRP` showed shrunken log2 fold change equal to -0.0313

Lab book: shrunken log2 fold change of `RRIRTRPPRLPRPRPRPLMRPRP` noted as 0.216

Value of measured shrunken log2 fold change for the entry `RRIRQRPPRLPRPRPRPICWPRP` : 0.0153

###

System: Escherichia coli TOP10
Experiment: shrunken log2 fold change of peptide-encoding DNA abundance (4.5 h post-induction vs induction); higher = less antimicrobial activity (less host growth inhibition)
Conditions: time post-induction: 4.5 h; library: site-saturation at positions 5, 18, 19, 20
Below, each entry is listed alongside its reported shrunken log2 fold change.

Worked cases, shrunken log2 fold change given:
>>> df
                  seq_text  experimental_value
0  RRIRHRPPRLPRPRPRPWNFPRP             -0.0202
1  RRIRPRPPRLPRPRPRPLRMPRP               0.596

Recorded shrunken log2 fold change (sequence `RRIRGRPPRLPRPRPRPRVHPRP` ): 0.666

###

Test system: Escherichia coli TOP10
Assay: shrunken log2 fold change of peptide-encoding DNA abundance (4.5 h post-induction vs induction); higher = less antimicrobial activity (less host growth inhibition)
Conditions: time post-induction: 4.5 h; library: site-saturation at positions 5, 18, 19, 20
In this section we review reported shrunken log2 fold change values for a set of sequences.
Provide a numeric answer; units are not to be included.

Some sequences with known shrunken log2 fold change results, for comparison:
                  seq_text  experimental_value
0  RRIRYRPPRLPRPRPRPMNQPRP              -0.383
1  RRIRRRPPRLPRPRPRPTYYPRP             -0.0395
2  RRIRCRPPRLPRPRPRPGKMPRP              -0.055
3  RRIRMRPPRLPRPRPRPRYHPRP              -0.186
4  RRIRCRPPRLPRPRPRPATGPRP               0.201
5  RRIRHRPPRLPRPRPRPGRLPRP               0.129
6  RRIRARPPRLPRPRPRPRWPPRP               0.666
7  RRIRGRPPRLPRPRPRPNGFPRP              0.0031

So for `RRIRVRPPRLPRPRPRPRLQPRP` , the logged shrunken log2 fold change turned out to be -0.000502

For `RRIRFRPPRLPRPRPRPDALPRP` the sequence record lists shrunken log2 fold change as -0.0978

# shrunken log2 fold change of `RRIRRRPPRLPRPRPRPYSSPRP` = -0.0612

For reference, reported shrunken log2 fold change for `RRIRIRPPRLPRPRPRPYTVPRP` stands at -1.32

###

Tested on: Escherichia coli TOP10
Assay: shrunken log2 fold change of peptide-encoding DNA abundance (4.5 h post-induction vs induction); higher = less antimicrobial activity (less host growth inhibition)
Settings: time post-induction: 4.5 h; library: site-saturation at positions 5, 18, 19, 20
Mark Condition not met for shrunken log2 fold change values under 0.08, and Condition met for everything at or above.

>>> print(df.to_string())
                  seq_text        label_value
0  RRIRMRPPRLPRPRPRPWHNPRP  Condition not met
1  RRIRDRPPRLPRPRPRPIDMPRP  Condition not met
2  RRIRVRPPRLPRPRPRPFNQPRP  Condition not met
3  RRIRERPPRLPRPRPRPPCCPRP  Condition not met
4  RRIRARPPRLPRPRPRPCVTPRP      Condition met
5  RRIRTRPPRLPRPRPRPMGRPRP      Condition met

Prompt line: Decide: shrunken log2 fold change of `RRIRLRPPRLPRPRPRPGPWPRP` >= 0.08?
Response line: Condition met

Prompt line: For this sequence, is measured shrunken log2 fold change 0.08 or higher? `RRIRHRPPRLPRPRPRPCATPRP`
Response line: Condition met

Prompt line: Has `RRIRKRPPRLPRPRPRPVGNPRP` a recorded shrunken log2 fold change greater than or equal to 0.08?
Response line: Condition not met

Prompt line: API: above_or_equal(metric=shrunken log2 fold change, cutoff=0.08) for item `RRIRWRPPRLPRPRPRPIETPRP`
Response line: Condition not met

Prompt line: Reported shrunken log2 fold change at or above 0.08? `RRIRVRPPRLPRPRPRPQWDPRP`
Response line: Condition not met

Prompt line: hey, is shrunken log2 fold change for this one >= 0.08? `RRIRWRPPRLPRPRPRPKNEPRP`
Response line: Condition met

###

Test system: Escherichia coli TOP10;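 further: peptides expressed intracellularly from a pBAD plasmid library in pooled LB shake-flask culture, induced with 0.3% L-arabinose, DNA abundance read by NGS, three biological replicates, DESeq2 with apeglm shrinkage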
Assay: shrunken log2 fold change of peptide-encoding DNA abundance (4.5 h post-induction vs induction); higher = less antimicrobial activity (less host growth inhibition)
Details: time post-induction: 4.5 h; library: site-saturation at positions 5, 18, 19, 20
Is shrunken log2 fold change at least -0.1? Then Fulfilled. If not, Not fulfilled.

>>> df
                  seq_text               tested_on    label_value
0  RRIRRRPPRLPRPRPRPKIDPRP  Escherichia coli TOP10      Fulfilled
1  RRIRFRPPRLPRPRPRPNKAPRP  Escherichia coli TOP10  Not fulfilled
2  RRIRKRPPRLPRPRPRPEENPRP  Escherichia coli TOP10      Fulfilled
3  RRIRCRPPRLPRPRPRPQYGPRP  Escherichia coli TOP10  Not fulfilled

Then there is this sequence:
Prompt line: Threshold query (shrunken log2 fold change >= -0.1) on `RRIRMRPPRLPRPRPRPGRNPRP`
Response line: Fulfilled
